Ref: patent US5840684A

System: vancomycin-susceptible enterococci
Assay: broth micro-dilution, mean geometric MIC
Format: cell-based, Enterococcus faecium and Enterococcus faecalis
Details: enterococci, 24-hour incubation
result_type: mean geometric MIC, Vancomycin Sensitive Strains (µg/mL)
Dear colleague, please return just the value in µg/mL, with no unit written.

Input line: I have this molecule here, CNC(CC(C)C)C(=O)NC1C(=O)NC(CC(N)=O)C(=O)NC2C(=O)NC3C(=O)NC(C(=O)NC(C(=O)O)c4cc(O)cc(O)c4-c4cc3ccc4O)C(OC3CC(C)(N)C(O)C(C)O3)c3ccc(c(Cl)c3)Oc3cc2cc(c3OC2OC(CO)C(O)C(O)C2OC2CC(C)(NCCc3cccc(Oc4ccccc4)c3)C(O)C(C)O2)Oc2ccc(cc2Cl)C1O (centres unmarked) , and I need its recorded mean geometric MIC, Vancomycin Sensitive Strains.
Output line: 0.22

Input line: Entry under review: CNC(CC(C)C)C(=O)NC1C(=O)NC(CC(N)=O)C(=O)NC2C(=O)NC3C(=O)NC(C(=O)NC(C(=O)O)c4cc(O)cc(O)c4-c4cc3ccc4O)C(OC3CC(C)(N)C(O)C(C)O3)c3ccc(c(Cl)c3)Oc3cc2cc(c3OC2OC(CO)C(O)C(O)C2OC2CC(C)(NCC3=CCC(C(C)C)CC3)C(O)C(C)O2)Oc2ccc(cc2Cl)C1O (centres unmarked) . Reported mean geometric MIC, Vancomycin Sensitive Strains?
Output line: 0.22

Input line: Would you kindly share the measured mean geometric MIC, Vancomycin Sensitive Strains for CNC(CC(C)C)C(=O)NC1C(=O)NC(CC(N)=O)C(=O)NC2C(=O)NC3C(=O)NC(C(=O)NC(C(=O)O)c4cc(O)cc(O)c4-c4cc3ccc4O)C(OC3CC(C)(N)C(O)C(C)O3)c3ccc(c(Cl)c3)Oc3cc2cc(c3OC2OC(CO)C(O)C(O)C2OC2CC(C)(NCc3ccc(Cl)c(C(=O)c4ccccc4)c3Cl)C(O)C(C)O2)Oc2ccc(cc2Cl)C1O (centres unmarked) ?
Output line: 0.13

Input line: What does the record list as mean geometric MIC, Vancomycin Sensitive Strains for "CN[C@H](CC(C)C)C(=O)N[C@H]1C(=O)N[C@@H](CC(N)=O)C(=O)N[C@H]2C(=O)N[C@H]3C(=O)N[C@H](C(=O)N[C@H](C(=O)O)c4cc(O)cc(O)c4-c4cc3ccc4O)[C@H](O[C@H]3C[C@](C)(N)[C@@H](O)[C@H](C)O3)c3ccc(c(Cl)c3)Oc3cc2cc(c3O[C@@H]2O[C@H](CO)[C@@H](O)[C@H](O)[C@H]2O[C@H]2C[C@](C)(NCc3ccc(OCc4ccc(Cl)cc4)cc3)[C@@H](O)[C@H](C)O2)Oc2ccc(cc2Cl)[C@H]1O" ?
Output line: 0.042

Input line: Suppose we examine the molecule CNC(CC(C)C)C(=O)NC1C(=O)NC(CC(N)=O)C(=O)NC2C(=O)NC3C(=O)NC(C(=O)NC(C(=O)O)c4cc(O)cc(O)c4-c4cc3ccc4O)C(OC3CC(C)(N)C(O)C(C)O3)c3ccc(c(Cl)c3)Oc3cc2cc(c3OC2OC(CO)C(O)C(O)C2OC2CC(C)(NCc3ccc(OC)c(OCC4CCCCC4)c3)C(O)C(C)O2)Oc2ccc(cc2Cl)C1O (centres unmarked) ; what mean geometric MIC, Vancomycin Sensitive Strains value has been reported?
Output line: 1.5

Input line: Any idea what its mean geometric MIC, Vancomycin Sensitive Strains is? The molecule is CNC(CC(C)C)C(=O)NC1C(=O)NC(CC(N)=O)C(=O)NC2C(=O)NC3C(=O)NC(C(=O)NC(C(=O)O)c4cc(O)cc(O)c4-c4cc3ccc4O)C(OC3CC(C)(N)C(O)C(C)O3)c3ccc(c(Cl)c3)Oc3cc2cc(c3OC2OC(CO)C(O)C(O)C2OC2CC(C)(NCC3CCC(COCc4ccccc4)CC3)C(O)C(C)O2)Oc2ccc(cc2Cl)C1O (centres unmarked)
Output line: 0.095

Input line: Which value of mean geometric MIC, Vancomycin Sensitive Strains has been reported for CNC(CC(C)C)C(=O)NC1C(=O)NC(CC(N)=O)C(=O)NC2C(=O)NC3C(=O)NC(C(=O)NC(C(=O)O)c4cc(O)cc(O)c4-c4cc3ccc4O)C(OC3CC(C)(N)C(O)C(C)O3)c3ccc(c(Cl)c3)Oc3cc2cc(c3OC2OC(CO)C(O)C(O)C2OC2CC(C)(NCc3ccc(-c4ccccc4[N+](=O)[O-])c([N+](=O)[O-])c3)C(O)C(C)O2)Oc2ccc(cc2Cl)C1O (centres unmarked) in the records?
Output line: 0.55

Input line: Endpoint output: mean geometric MIC, Vancomycin Sensitive Strains of CNC(CC(C)C)C(=O)NC1C(=O)NC(CC(N)=O)C(=O)NC2C(=O)NC3C(=O)NC(C(=O)NC(C(=O)O)c4cc(O)cc(O)c4-c4cc3ccc4O)C(OC3CC(C)(N)C(O)C(C)O3)c3ccc(c(Cl)c3)Oc3cc2cc(c3OC2OC(CO)C(O)C(O)C2OC2CC(C)(NCc3c4ccccc4cc4ccccc34)C(O)C(C)O2)Oc2ccc(cc2Cl)C1O (centres unmarked) . Value?
Output line: 0.76

Input line: Can you look up the measured mean geometric MIC, Vancomycin Sensitive Strains of CNC(CC(C)C)C(=O)NC1C(=O)NC(CC(N)=O)C(=O)NC2C(=O)NC3C(=O)NC(C(=O)NC(C(=O)O)c4cc(O)cc(O)c4-c4cc3ccc4O)C(OC3CC(C)(N)C(O)C(C)O3)c3ccc(c(Cl)c3)Oc3cc2cc(c3OC2OC(CO)C(O)C(O)C2OC2CC(C)(NCc3ccc([S+]([O-])c4ccccc4)cc3)C(O)C(C)O2)Oc2ccc(cc2Cl)C1O (centres unmarked) for me?
Output line: 0.50

Input line: I am curious: what mean geometric MIC, Vancomycin Sensitive Strains value has been reported for CNC(CC(C)C)C(=O)NC1C(=O)NC(CC(N)=O)C(=O)NC2C(=O)NC3C(=O)NC(C(=O)NC(C(=O)O)c4cc(O)cc(O)c4-c4cc3ccc4O)C(OC3CC(C)(N)C(O)C(C)O3)c3ccc(c(Cl)c3)Oc3cc2cc(c3OC2OC(CO)C(O)C(O)C2OC2CC(C)(NCc3cccc4c3OCO4)C(O)C(C)O2)Oc2ccc(cc2Cl)C1O (centres unmarked) ?
Output line: 0.76

Input line: If you can, please state the reported mean geometric MIC, Vancomycin Sensitive Strains value of CNC(CC(C)C)C(=O)NC1C(=O)NC(CC(N)=O)C(=O)NC2C(=O)NC3C(=O)NC(C(=O)NC(C(=O)O)c4cc(O)cc(O)c4-c4cc3ccc4O)C(OC3CC(C)(N)C(O)C(C)O3)c3ccc(c(Cl)c3)Oc3cc2cc(c3OC2OC(CO)C(O)C(O)C2OC2CC(C)(NCc3ccc(C#Cc4ccccc4)cc3)C(O)C(C)O2)Oc2ccc(cc2Cl)C1O (centres unmarked) .
Output line: 0.042
